target: Collagenase 3 (Homo sapiens, UniProt P45452); assay: Inhibition of human recombinant MMP13 catalytic domain incubated for 20 mins by fluorimetric assay
pIC50: −log10 of the molar value.
Attribute: pIC50

- MOLECULE: "O=c1cc(-c2ccc(O)c(O)c2)oc2cc(O)cc(O)c12"
  pIC50: 5.00
- MOLECULE: "O=C1c2c(O)cc(O)cc2O[C@H](c2cc(O)c(O)c(O)c2)[C@@H]1O"
  pIC50: 5.03
- MOLECULE: "O=C1c2c(O)cc(O)cc2O[C@]2(c3ccc(O)cc3)Oc3cc(O)c4c(c3[C@@]12O)O[C@H](c1ccc(O)cc1)CC4"
  pIC50: 4.88
- MOLECULE: "C[C@@H]1O[C@@H](O[C@@H]2[C@@H](O)[C@H](OCCc3ccc(O)c(O)c3)O[C@H](COC(=O)/C=C/c3ccc(O)c(O)c3)[C@H]2O)[C@H](O)[C@H](O)[C@H]1O [ISOACTEOSIDE]"
  pIC50: 4.96
